This listing pairs sequences with measured self-splicing fitness (ln).
method-description: self-splicing fitness, log relative to wild type (ln ratio); higher = more splicing; Tetrahymena group I intron in knt gene, E. coli kanamycin selection, DiMSum; sequences stand for … in CUCUCU…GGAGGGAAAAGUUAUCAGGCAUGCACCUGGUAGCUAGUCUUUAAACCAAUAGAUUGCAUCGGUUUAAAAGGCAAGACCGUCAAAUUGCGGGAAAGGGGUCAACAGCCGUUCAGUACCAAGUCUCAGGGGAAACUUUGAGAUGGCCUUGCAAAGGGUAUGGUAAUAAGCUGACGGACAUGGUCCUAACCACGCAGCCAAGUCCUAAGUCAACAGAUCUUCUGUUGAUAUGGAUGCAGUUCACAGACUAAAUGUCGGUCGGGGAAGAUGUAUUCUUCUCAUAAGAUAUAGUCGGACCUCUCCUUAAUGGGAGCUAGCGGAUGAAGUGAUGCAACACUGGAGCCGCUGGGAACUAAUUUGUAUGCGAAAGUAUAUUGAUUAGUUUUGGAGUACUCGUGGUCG;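 note: selection with 25 µg/mL kanamycin versus none on LB agar overnight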
cond: 30 °C

Previously resolved entries follow.
Looking for the measured self-splicing fitness (ln) of "UUCGAGCAAUAUUACGUGAA" , can you help?
-1.55

Returns the measured self-splicing fitness (ln) for the input sequence. Input: "UGCGAGCAAUAUUACGUAAG"
-3.72

Suppose we examine the sequence "UCGCAGCAAUAUUACGCAGU" ; what self-splicing fitness (ln) value has been reported?
-3.58

Which self-splicing fitness (ln) value is on record for "CAUAAGCAAUAUUACGUAGC" ?
-3.15

# get_value(readout='self-splicing fitness (ln)', item= "GGGAAGCAAUAUUACGCUGA" )
-2.63

State the recorded self-splicing fitness (ln) for this entry: "AGAUAGCAAUAUUACGACAG"
-2.26

Query: self-splicing fitness (ln); subject: "CCAUAGCAAUAUUACGCAAG"
-2.84

Can you share its self-splicing fitness (ln)? I mean this sequence: "AGACAGCAAUAUUACGCCAA"
-2.35

Need self-splicing fitness (ln) of "UACCAGCAAUAUUACGUGCU" , thanks.
-4.3

self-splicing fitness (ln) lookup needed for "CGCAAGCAAUAUUACGCUCC" , thanks.
-2.06

***
Consider the sequence shown here: "UAUCAGCAAUAUUACGUGAU" What is its recorded self-splicing fitness (ln)?
-3.01

Field request: self-splicing fitness (ln) | item: "CGUGAGCAAUAUUACGUCCA"
-2.37

Quick one: self-splicing fitness (ln) of "GUCAAGCAAUAUUACGGAGC" ?
-2.47

Tell me the measured self-splicing fitness (ln) of "CAAGAGCAAUAUUACGACGU" , please.
-2.88

Bench note: what self-splicing fitness (ln) did "CAUGAGCAAUAUUACGAAAU" show?
-2.72

* * *

Items are presented alongside their recorded self-splicing fitness (ln).
method-description: self-splicing fitness, log relative to wild type (ln ratio); higher = more splicing; Tetrahymena group I intron in knt gene, E. coli kanamycin selection, DiMSum; sequences stand for … in CUCUCU…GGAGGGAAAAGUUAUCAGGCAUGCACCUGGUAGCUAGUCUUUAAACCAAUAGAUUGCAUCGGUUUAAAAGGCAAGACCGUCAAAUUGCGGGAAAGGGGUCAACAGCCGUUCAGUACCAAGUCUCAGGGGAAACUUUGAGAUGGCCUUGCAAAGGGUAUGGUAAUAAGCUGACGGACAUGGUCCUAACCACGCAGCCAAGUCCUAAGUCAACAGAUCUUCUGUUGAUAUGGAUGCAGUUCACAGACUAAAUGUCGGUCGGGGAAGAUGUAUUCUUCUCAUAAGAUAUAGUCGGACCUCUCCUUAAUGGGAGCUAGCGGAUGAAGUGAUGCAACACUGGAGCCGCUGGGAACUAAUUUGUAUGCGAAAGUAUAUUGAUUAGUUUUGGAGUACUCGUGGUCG
cond: 37 °C
// no unit, no text: just the number

# example entries with known answers
What measured self-splicing fitness (ln) goes with "ACGCAGCAAUAUUACGCGGC" ?
-3.06

For the sequence "GUACAGCAAUAUUACGCAGA" , what self-splicing fitness (ln) is on record?
-2.72

Reported self-splicing fitness (ln) for "UCCAAGCAAUAUUACGUGGG" : what is it?
-2.71

Proceeding to the next sequence to report its self-splicing fitness (ln).
Item under review: "AAAAAGCAAUAUUACGUGAU" . Reported self-splicing fitness (ln)?
-0.588

* * *

method-description: self-splicing fitness, log relative to wild type (ln ratio); higher = more splicing; Tetrahymena group I intron in knt gene, E. coli kanamycin selection, DiMSum; sequences stand for … in CUCUCU…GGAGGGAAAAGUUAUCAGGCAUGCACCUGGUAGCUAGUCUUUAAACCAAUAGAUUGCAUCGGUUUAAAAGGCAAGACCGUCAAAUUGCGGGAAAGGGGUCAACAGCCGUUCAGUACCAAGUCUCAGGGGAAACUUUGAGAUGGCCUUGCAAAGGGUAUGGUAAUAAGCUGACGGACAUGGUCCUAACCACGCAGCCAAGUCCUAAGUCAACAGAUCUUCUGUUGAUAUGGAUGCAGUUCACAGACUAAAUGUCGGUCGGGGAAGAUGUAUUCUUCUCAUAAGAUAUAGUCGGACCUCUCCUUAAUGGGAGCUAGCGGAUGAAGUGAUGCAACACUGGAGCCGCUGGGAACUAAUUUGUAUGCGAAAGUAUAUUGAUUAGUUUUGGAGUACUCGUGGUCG
cond: 30 °C
Known self-splicing fitness (ln) of a selection of sequences
Reply with just the number.

Look over these answered cases.
Please report the recorded self-splicing fitness (ln) for "AUACAGCAAUAUUACGGUUA" .
-0.52

Which value of self-splicing fitness (ln) has been reported for "UUGCAGCAAUAUUACGCGUG" in the records?
-3.13

Sample "UCACAGCAAUAUUACGUUGU" — what was its self-splicing fitness (ln)?
-4.29

State the recorded self-splicing fitness (ln) for this entry: "CUCGAGCAAUAUUACGCAAA"
-2.55

Recorded self-splicing fitness (ln) of "AGUCAGCAAUAUUACGUAUC" , please.
-1.19

Others:
Which self-splicing fitness (ln) is reported for this sequence? "CGUAAGCAAUAUUACGGACG"
-2.45

GET /values?readout=self-splicing fitness (ln)&item= "AGCUAGCAAUAUUACGACCU"
0.703

Return reported self-splicing fitness (ln); argument: "UGGAAGCAAUAUUACGUUUA"
-0.859

# self-splicing fitness (ln) lookup, item "CACUAGCAAUAUUACGCGUU"
-2.86

I have this sequence here, "GAAGAGCAAUAUUACGCUAU" , and I need its recorded self-splicing fitness (ln).
-2.39

* * *

method-description: self-splicing fitness, log relative to wild type (ln ratio); higher = more splicing; Tetrahymena group I intron in knt gene, E. coli kanamycin selection, DiMSum; sequences stand for … in CUCUCU…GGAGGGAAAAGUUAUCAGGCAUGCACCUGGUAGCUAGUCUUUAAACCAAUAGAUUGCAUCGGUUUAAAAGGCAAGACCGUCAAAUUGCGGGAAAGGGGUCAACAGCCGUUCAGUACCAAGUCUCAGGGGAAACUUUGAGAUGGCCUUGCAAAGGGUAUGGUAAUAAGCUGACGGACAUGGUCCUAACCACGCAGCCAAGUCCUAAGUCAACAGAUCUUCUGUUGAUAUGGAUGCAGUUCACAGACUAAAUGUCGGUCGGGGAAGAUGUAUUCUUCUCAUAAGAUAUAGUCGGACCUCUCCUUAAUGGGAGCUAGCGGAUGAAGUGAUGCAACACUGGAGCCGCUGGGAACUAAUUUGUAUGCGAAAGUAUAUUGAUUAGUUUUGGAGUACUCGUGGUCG
cond: 30 °C
experimental-readout: self-splicing fitness (ln)
Answer with a number only.

Illustrative cases are given below, each with its answer.
What value of measured self-splicing fitness (ln) is listed for "GCGGAGCAAUAUUACGGGGC" ?
-2.48

Can you share its self-splicing fitness (ln)? I mean this sequence: "GGACAGCAAUAUUACGACAU"
-0.378

Others:
Reported self-splicing fitness (ln), sequence "ACAGAGCAAUAUUACGUGUC" : ____
-3.27

Which measured self-splicing fitness (ln) value corresponds to "ACCUAGCAAUAUUACGAGGC" ?
-1.58

What does the record list as self-splicing fitness (ln) for "UACCAGCAAUAUUACGCUAA" ?
-1.14

// self-splicing fitness (ln) lookup, key: "UUGGAGCAAUAUUACGUGUU"
-2.58

Would you kindly share the measured self-splicing fitness (ln) for "UACUAGCAAUAUUACGUACU" ?
-2.51

What self-splicing fitness (ln) value was documented for this sequence, "UUCGAGCAAUAUUACGGGGA" ?
-1.7

What measured self-splicing fitness (ln) goes with "GUGUAGCAAUAUUACGUAAG" ?
-1.56

Suppose we examine the sequence "AGCAAGCAAUAUUACGCUAG" ; what self-splicing fitness (ln) value has been reported?
-4.08

Recorded values, source the supplement of paper PMC7877785.
